Tested on: HEK-CMV-Luc2-Hygro cells
assay.method.text: High-throughput genome-wide siRNA screen and validation screen for luciferase expression
Format: cell-based, human
condition.parameters: Table 4; primary screen, 72 h, negative control = 100%
Entries annotated with measured Viable cell density (%)
# do not omit the unit; it follows the number

The examples below pair each entry with its known result.
# substance, Viable cell density (%)
records = [
    ("211 (GGAUUACAGAAACUCCUAUTT; chemistry not given here; listed as Homo sapiens) [compound 211]", "82.634%"),
    ("145 (CCAGUUCGACCUGAACAAATT; chemistry not given here; listed as Homo sapiens) [compound 145]", "85.750%"),
    ("178 (AAAUGCAACCCAAAAAGUATT; chemistry not given here; listed as Homo sapiens) [compound 178]", "76.280%"),
]

Documented Viable cell density (%) of 196 (ACAGGUCUUUAUCAAAGCATT; chemistry not given here; listed as Homo sapiens) [compound 196] : 100.201%

Data point: 100 (GAACGAGUACAGCAAUAUATT; chemistry not given here; listed as Homo sapiens) [compound 100] ; Viable cell density (%) = 108.214%

Reported Viable cell density (%) of 102 (AGAUCUUUGUCAAGGUGUATT; chemistry not given here; listed as Homo sapiens) [compound 102] : 96.256%
